system: E. multilocularis metacestode vesicles; test: Metacestode vesicle viability assay (ATP, CellTiter-Glo); format: cell-based, Echinococcus multilocularis; settings: overview screen, 10 μM, singlets, 12 days, relative to DMSO control
Measured attribute: Viability d12 (relative viability)

Hi there! I need Viability d12 (relative viability) for each item below, if you can.
1. Nc1nc(O)c(Br)c(-c2cccc(Cl)c2)n1
2. CS(=O)(=O)c1ccc(Oc2ccc(Cl)cc2)cc1
3. O=C(Nc1ccc(-c2ccccc2)cc1)C1=C(O)C(Cc2ccccc2)OC1=O (stereo not drawn)

Outgoing:
1: 465.171%; 2: 57.7676%; 3: 16.5533%

---

tested on: E. multilocularis metacestode vesicles; assay: Phosphoglucose isomerase (PGI) release assay (damage-marker release) on metacestode vesicles; format: cell-based, Echinococcus multilocularis; conditions: overview screen, 10 μM, singlets, 5 days, relative to 0.1 % Triton X-100, DMSO subtracted
Measured attribute: PGI d5 (relative PGI release) (%)
One number for each entry, in %.

{"Compound": "O=[N+]([O-])/C(Br)=C/c1ccc(Br)o1", "Measured attribute": "PGI d5 (relative PGI release)", "Unit of measure": "%", "Experimental result": 1.139}
{"Compound": "O=C1CCC(N2C(=O)c3ccccc3C2=O)C(=O)N1 (centres unmarked)", "Measured attribute": "PGI d5 (relative PGI release)", "Unit of measure": "%", "Experimental result": -1.046}
{"Compound": "CC(=O)Nc1cc(NS(=O)(=O)c2ccc(Cl)cc2)cc2c(Cl)n[nH]c12", "Measured attribute": "PGI d5 (relative PGI release)", "Unit of measure": "%", "Experimental result": 1.247}
{"Compound": "CC(C)(C)NC(=O)N[C@H](C(=O)N1C[C@H]2[C@@H]([C@H]1C(=O)NC(CC1CCC1)C(=O)C(N)=O)C2(C)C)C(C)(C)C (some centres unmarked)", "Measured attribute": "PGI d5 (relative PGI release)", "Unit of measure": "%", "Experimental result": 0.3266}

Incoming: For "Cn1cc(NC(=O)c2cc(NC(=O)c3ccc(/C=C/c4cnc5ccccc5c4)cc3)cn2C)cc1C(=O)NCCN1CCOCC1" , what is its reported PGI d5 (relative PGI release)?
Outgoing: -0.2305

---

Give measured PGI d12 (relative PGI release) for each item. Keep answers brief.
test system: E. multilocularis metacestode vesicles; experiment: Phosphoglucose isomerase (PGI) release assay (damage-marker release) on metacestode vesicles; type: cell-based, Echinococcus multilocularis; conditions: overview screen, 10 μM, singlets, 12 days, relative to 0.1 % Triton X-100, DMSO subtracted
Numbers only, in %.

{"Compound": "C=C(C)[C@@H]1CC[C@]2(C(=O)O)CC[C@]3(C)[C@H](CC[C@@H]4[C@@]5(C)CC[C@H](O)C(C)(C)[C@@H]5CC[C@]43C)[C@@H]12", "PGI d12 (relative PGI release) / %": -0.6563}
{"Compound": "COc1ccc(C[C@@H](C)[C@@H](C)Cc2ccc(OC)c(OC)c2)cc1OC", "PGI d12 (relative PGI release) / %": 2.335}
{"Compound": "CC(C)(C)c1cc(C(=O)/C(C#N)=N/Nc2cccc(Cl)c2)no1", "PGI d12 (relative PGI release) / %": 64.0941}

Hi there! I need PGI d12 (relative PGI release) for each item below, if you can.
1. OCCCCn1cnc2c(O)nc(NCc3ccc(Cl)c(Cl)c3)nc21
2. O=S(=O)(Nc1cccc2cccnc12)c1ccccc1
3. COc1ccc(C2CNC(=O)C2)cc1OC1CCCC1 (stereo not drawn)

Outgoing:
1. -12.5973
2. 49.7638
3. -19.6179

Hi there! I need PGI d12 (relative PGI release) for each item below, if you can.
1. Clc1cccc(-c2nnc(-c3ccccc3)o2)c1
2. Cc1cc(O)c2c(c1)C(=O)c1c(I)c(C)c(I)c(O)c1C2=O
3. O=C(Nc1ccc(-c2ccccc2)cc1)C1=C(O)C(Cc2ccccc2)OC1=O (stereo not drawn)

Outgoing:
1. -13.7141
2. 27.8991
3. 88.1717

---

tested on: E. multilocularis metacestode vesicles; test: Phosphoglucose isomerase (PGI) release assay (damage-marker release) on metacestode vesicles; assay type: cell-based, Echinococcus multilocularis; settings: overview screen, 10 μM, singlets, 12 days, relative to 0.1 % Triton X-100, DMSO subtracted
Measured attribute: PGI d12 (relative PGI release) (%)
Answers are plain numbers, in %.

Answered examples (2):
{"Molecule": "Nc1ccc2oc(=O)ccc2c1I", "PGI d12 (relative PGI release) (%)": -19.2105}
{"Molecule": "CCOc1noc2cc(OCCC3CCN(c4ccc(C)nn4)CC3)ccc12", "PGI d12 (relative PGI release) (%)": -20.1339}

Hi there! I need PGI d12 (relative PGI release) for each item below, if you can.
1. CN(C)CCCNC(=O)c1ccc(-c2cc(O)c3ncccc3c2)cc1
2. CCc1nc2ccc(Cl)cn2c1C(=O)NCc1ccc(N2CCC(c3ccc(OC(F)(F)F)cc3)CC2)cc1
3. Cc1[nH]c2ccccc2c1CC(=O)N[C@@H](Cc1ccccc1)C(=O)N(C)c1ccccc1
4. CCC[C@H](NC(=O)[C@@H]1[C@H]2CCC[C@H]2CN1C(=O)[C@@H](NC(=O)[C@@H](NC(=O)c1cnccn1)C1CCCCC1)C(C)(C)C)C(=O)C(=O)NC1CC1
5. Cc1c[nH]c(=O)nc1NCc1ccccc1
6. Oc1cc(-c2cccc3ccccc23)[nH]n1
7. O=[N+]([O-])c1cn2c(n1)OC[C@@H](OCc1ccc(OC(F)(F)F)cc1)C2

Outgoing:
[-1.51, -6.627, -4.531, -0.8271, -1.8719, -25.9471, -12.4687]

Hi there! I need PGI d12 (relative PGI release) for each item below, if you can.
1. Nc1nc(NC2Cc3ccc(F)cc3C2)nc(N2CCCCC2)n1 (stereo not drawn)
2. CC1=C(/C=C/C(C)=C/C=C/C(C)=C/C(=O)Nc2ccc(O)cc2)C(C)(C)CCC1
3. O=C(NCc1ccccc1Cl)c1cnc2ccccc2n1
4. COc1ccc(NS(=O)(=O)c2ccc(Cl)s2)cn1
5. O=C(Nc1ccccc1)N(Cc1cc(Br)ccc1O)c1ccc(F)cc1
6. O=C(Nc1ccc(Cl)c(C(F)(F)F)c1)C(CCCl)C(=O)Nc1ccc(Cl)c(C(F)(F)F)c1
7. COC(=O)Nc1nc2c(C)cccc2[nH]1

Outgoing:
-6.152
-19.3598
-11.048
-16.9426
-25.2603
31.1069
-20.8652

---

test system: E. multilocularis metacestode vesicles; test: Phosphoglucose isomerase (PGI) release assay (damage-marker release) on metacestode vesicles; format: cell-based, Echinococcus multilocularis; settings: overview screen, 10 μM, singlets, 5 days, relative to 0.1 % Triton X-100, DMSO subtracted
Measured attribute: PGI d5 (relative PGI release)
// unit must come after the numeric part

Answered examples (3):
{"Compound": "C=C(C)n1c(=O)n(Cc2ccccc2C)c2ccccc21 [MMV1579354]", "PGI d5 (relative PGI release)": "29.5855%"}
{"Compound": "O=C(/C(=C/c1ccc(Cl)cc1Cl)n1ccnc1)c1ccc(Cl)cc1 [MMV1634491]", "PGI d5 (relative PGI release)": "24.947%"}
{"Compound": "O=C(O)c1cc(-c2ccc(Br)cc2)nc2ccc(Cl)cc12 [MMV247764]", "PGI d5 (relative PGI release)": "0.5774%"}

Hi there! I need PGI d5 (relative PGI release) for each item below, if you can.
1. N[C@@H]1CN(c2c(F)cc3c(=O)c(C(=O)O)cn([C@@H]4C[C@@H]4F)c3c2Cl)CC12CC2 [MMV1579850]
2. CC(C)(C)NC(=O)[C@@H]1C[C@@H]2CCCC[C@@H]2CN1C[C@@H](O)[C@H](Cc1ccccc1)NC(=O)[C@H](CC(N)=O)NC(=O)c1ccc2ccccc2n1 [MMV637879]
3. COc1ccc(CNC(=O)C2CCN(C(C)c3cccc4ccccc34)CC2)cc1 (stereo not shown) [MMV1634397]
4. N#Cc1c(F)c(Cl)c(NCc2ccccc2)c(C#N)c1F [MMV1582496]
5. OB1OCc2cc(Cl)ccc21 [MMV1634363]

Outgoing:
1: -2.37%; 2: -0.1506%; 3: 1.669%; 4: 23.5135%; 5: -0.4278%

---

Give measured PGI d12 (relative PGI release) for each item. Keep answers brief.
system: E. multilocularis metacestode vesicles; assay: Phosphoglucose isomerase (PGI) release assay (damage-marker release) on metacestode vesicles; type: cell-based, Echinococcus multilocularis; conditions: overview screen, 10 μM, singlets, 12 days, relative to 0.1 % Triton X-100, DMSO subtracted
Give bare numbers, in %.

{"Compound": "CCCCN1C[C@H](O)[C@@H](O)[C@H](O)[C@H]1CO", "Measured attribute": "PGI d12 (relative PGI release)", "Unit of measure": "%", "Experimental result": -0.1991}
{"Compound": "c1cnc(NCc2ccc(CNc3ncccn3)cc2)nc1", "Measured attribute": "PGI d12 (relative PGI release)", "Unit of measure": "%", "Experimental result": 0.4288}

Hi there! I need PGI d12 (relative PGI release) for each item below, if you can.
1. CCc1c(O)nc2ccc(F)cc2c1OCC1CCC1
2. CN(C)CCNC(=O)c1cccc2cccnc12
3. Nc1nnc(-c2ccc(Cl)cc2)s1
4. N#Cc1c(F)c(Cl)c(NCc2ccccc2)c(C#N)c1F
5. FC(F)(F)c1cc(C(F)(F)F)c2ccc3nc(-c4nnco4)cn3c2n1
6. Cc1ccc(N2CCC(CCOc3ccc(S(C)(=O)=O)cc3)CC2)nn1

Outgoing:
-17.3568
33.0305
3.499
27.7197
0.5886
-19.1494

// provenance: paper PMC12410356
